Target: rat CB2 receptor (rCB2) (Rattus norvegicus, UniProt Q9QZN9)
Sequence (Q9QZN9 1-360): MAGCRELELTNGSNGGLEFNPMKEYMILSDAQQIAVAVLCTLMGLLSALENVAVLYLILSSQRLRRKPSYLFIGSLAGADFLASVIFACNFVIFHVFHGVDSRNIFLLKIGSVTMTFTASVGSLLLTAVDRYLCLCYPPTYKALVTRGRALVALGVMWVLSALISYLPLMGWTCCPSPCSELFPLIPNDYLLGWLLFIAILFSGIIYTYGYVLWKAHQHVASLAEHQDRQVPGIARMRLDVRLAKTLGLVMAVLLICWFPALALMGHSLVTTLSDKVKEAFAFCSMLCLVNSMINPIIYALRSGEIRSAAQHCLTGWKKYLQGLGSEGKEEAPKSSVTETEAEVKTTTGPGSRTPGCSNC
Assay: cell-based
Format: cell-based
Conditions: agonist or inverse agonist at rCB2

# compound, +/− RCB2
rows = [
    ("CNC(=O)[C@H](CC(C)(C)C)NC(=O)c1nc(-c2ccc(Cl)c(F)c2)n2c1CN(C)CCC2 [Compound 550]", "−"),
    ("CNC(=O)[C@@H](NC(=O)c1nc(-c2ccc(C(F)(F)F)cc2)n2c1CNCC2)C(C)(C)C [Compound 5]", "−"),
    ("CNC(=O)[C@@H](NC(=O)c1nc(-c2ccncc2)n2c1CN(C)CCC2)C(C)(C)C [Compound 402]", "+"),
    ("CCN1CCCn2c(-c3ccccc3)nc(C(=O)N[C@H](C(=O)NC)C(C)(C)C)c2C1 [Compound 318]", "+"),
]

---

Biological target: UniProtKB Q9QZN9
Sequence (Q9QZN9 1-360): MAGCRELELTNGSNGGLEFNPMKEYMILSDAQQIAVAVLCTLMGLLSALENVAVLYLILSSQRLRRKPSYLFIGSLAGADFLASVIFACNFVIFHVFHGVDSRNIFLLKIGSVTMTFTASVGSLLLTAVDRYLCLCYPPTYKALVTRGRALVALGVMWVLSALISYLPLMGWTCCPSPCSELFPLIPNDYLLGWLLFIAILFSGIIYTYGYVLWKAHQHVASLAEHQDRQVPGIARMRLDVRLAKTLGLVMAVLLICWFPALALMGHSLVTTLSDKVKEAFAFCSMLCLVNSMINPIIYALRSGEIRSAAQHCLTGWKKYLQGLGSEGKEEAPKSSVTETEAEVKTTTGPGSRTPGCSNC
Assay: cell-based
Assay type: cell-based
Settings: agonist or inverse agonist at rCB2

# record-smiles, +/− RCB2
data = [
    ("CNC(=O)[C@@H](NC(=O)c1nc(/C=C/CN2CCOCC2)n2c1CN(C)CC2)C(C)(C)C", "+"),
    ("CNC(=O)[C@@H](NC(=O)c1nc(-c2cc(Cl)c(F)cc2F)n2c1CN(C)CCC2)C(C)(C)C", "+"),
    ("CC(C)CN1CCn2c(-c3ccccc3)nc(C(=O)N[C@@H](C)C(C)(C)C)c2C1", "−"),
    ("Cc1nnc([C@@H](NC(=O)c2nc(-c3ccccc3)n3c2CN(C)CC3)C(C)(C)C)o1", "+"),
    ("Cc1ccc(-c2nc(C(=O)N[C@H](c3nc(C)no3)C(C)(C)C)c3n2CCCN(C(=O)OC(C)(C)C)C3)c(F)c1", "−"),
    ("CNC(=O)[C@H](Cc1cscn1)NC(=O)c1nc(-c2cc(Cl)c(F)cc2F)n2c1CN(C)CCC2", "+"),
    ("Cc1noc([C@@H](NC(=O)c2nc(-c3ccccc3)n3c2CN(CC(C)C)CC3)C(C)(C)C)n1", "−"),
    ("CN1CCCn2c(-c3ccc(Cl)cc3F)nc(C(=O)N[C@H](C(N)=O)C(C)(C)C)c2C1", "+"),
    ("CNC(=O)[C@@H](NC(=O)c1nc(Cl)n2c1CNCCC2)C(C)(C)C", "+"),
    ("CNC(=O)[C@@H](NC(=O)c1nc(-c2ccccc2)n2c1CN(C)CC2)C(C)(C)C", "+"),
    ("COC(=O)[C@@H](NC(=O)c1nc(-c2ccccc2)n2c1CNCCC2)C(C)(C)C", "+"),
    ("CNC(=O)[C@@H](NC(=O)c1nc(-c2ccccc2)n2c1CN(CC1CC1)CCC2)C(C)(C)C", "−"),
    ("CNC(=O)[C@@H](NC(=O)c1nc(-c2ccccc2)n2c1CN(C(=O)NC(C)(C)C)CC2)C(C)(C)C", "−"),
    ("CNC(=O)[C@@H](NC(=O)c1nc(-c2ccccc2)n2c1CN(CC(C)C)CC2)C(C)(C)C", "−"),
    ("CNC(=O)[C@@H](NC(=O)c1nc(CCC2CCCCC2)n2c1CN(C)CCC2)C(C)(C)C", "−"),
    ("CNC(=O)[C@@H](NC(=O)c1nc(-c2ccco2)n2c1CNCC2)C(C)(C)C", "+"),
]
